Reference for the values: patent US9302999B2

Collected Plant response rating, Foxtail, Green values appear next to each entry.
Tested on: foxtail, green (green foxtail, Setaria viridis)
Assay: Test C pre-/postemergence: foxtail, green
Type: in vivo
Conditions: Preemergence, 62 g ai/ha; scale of 0 to 100, 0 is no effect, 100 is complete control
Description: […] Treated plants and controls were maintained in a greenhouse for 13 to 15 days, after which time all species were compared to controls and visually evaluated. […]
endpoint_label: Plant response rating, Foxtail, Green

INSERT INTO measurements (smiles_entry, reported_measurement) VALUES
  ('Cc1nn(-c2ccc(C(F)(F)F)cc2)nc1Cc1ccnc(C(F)(F)F)c1', 100),
  ('CCOc1nn(-c2ccc(F)cc2)nc1Cc1ccnc(C(F)F)c1', 90),
  ('Cc1nn(-c2ccc(F)c(C(F)(F)F)c2)nc1Oc1ccnc(C(F)(F)F)c1', 95),
  ('Fc1ccc(-n2nc(Cc3ccnc(C(F)(F)F)c3)c(OCC(F)(F)F)n2)cc1', 90);

----------
test system: blackgrass (Alopecurus myosuroides); test: Test C pre-/postemergence: blackgrass; assay type: in vivo; details: Preemergence, 125 g ai/ha; scale 0 to 100, 0 no effect, 100 complete control
Plant response rating, Blackgrass reference
endpoint_label: Plant response rating, Blackgrass

INSERT INTO assay_data (compound, endpoint_label, reported_measurement) VALUES
  ('Cc1nn(-c2ccc(F)c(C(F)(F)F)c2)nc1Oc1ccnc(C(F)(F)F)c1 [Compound 147]', 'Plant response rating, Blackgrass', 90),
  ('Cc1nn(-c2ccc(C(F)(F)F)c(F)c2)nc1Cc1ccnc(C(F)(F)F)c1 [Compound 162]', 'Plant response rating, Blackgrass', 90),
  ('CCCc1nn(-c2ccc(C(F)(F)F)c(F)c2)nc1Oc1ccnc(C(F)(F)F)c1 [Compound 185]', 'Plant response rating, Blackgrass', 95),
  ('CCOc1nn(-c2ccc(F)cc2)nc1Cc1ccnc(C(F)F)c1 [Compound 195]', 'Plant response rating, Blackgrass', 90),
  ('Cc1nn(-c2ccc(C(F)(F)F)cc2)nc1Cc1ccnc(C(F)(F)F)c1 [Compound 47]', 'Plant response rating, Blackgrass', 100),
  ('Fc1ccc(-n2nc(Cc3ccnc(C(F)(F)F)c3)c(OCC(F)(F)F)n2)cc1 [Compound 142]', 'Plant response rating, Blackgrass', 90),
  ('CCCc1nn(-c2ccc(F)cc2)nc1Cc1ccnc(C(F)(F)F)c1 [Compound 153]', 'Plant response rating, Blackgrass', 90);

----------
test system: corn (Zea mays); test: Test A pre-/postemergence: corn; format: in vivo; settings: Postemergence, 125 g ai/ha; 0 to 100 scale, 0 is no effect, 100 is complete control
Measured Corn plant response rating, listed per entry.
endpoint_label: Corn plant response rating

INSERT INTO results (smiles_entry, endpoint_label, reported_measurement) VALUES
  ('Cc1nn(-c2ccc(Br)cc2)nc1C(=O)c1cccc(C(F)(F)F)c1', 'Corn plant response rating', 10),
  ('Cc1cc(Oc2nn(-c3ccc(F)cc3)nc2C)ccc1F', 'Corn plant response rating', 0),
  ('Cc1nn(-c2cccc(C(F)(F)F)c2)nc1Oc1ccnc(C(F)(F)F)c1', 'Corn plant response rating', 10),
  ('Cc1nn(-c2cccc(C(F)(F)F)n2)nc1C(=O)c1cccc(C(F)(F)F)c1', 'Corn plant response rating', 0),
  ('Cc1nn(-c2ccccc2[N+](=O)[O-])nc1C(=O)c1cccc(C(F)(F)F)c1', 'Corn plant response rating', 0),
  ('Cc1nn(-c2ccnc(Cl)c2)nc1C(=O)c1cccc(C(F)(F)F)c1', 'Corn plant response rating', 20);

----------
# maps each entry to its Plant response rating, Foxtail, Giant
test system: foxtail, giant (giant foxtail, Setaria faberii); assay: Test A pre-/postemergence: foxtail, giant; format: in vivo; details: Preemergence, 125 g ai/ha; 0 to 100 scale where 0 is no effect and 100 is complete control
endpoint_label: Plant response rating, Foxtail, Giant

INSERT INTO assay_data (smiles_entry, assay_system, reported_measurement) VALUES
  ('CCCc1nn(-c2ccc(F)cc2)nc1Cc1cccc(C(F)(F)F)c1', 'foxtail, giant (giant foxtail, Setaria faberii)', 90),
  ('COc1nn(-c2ccc(F)cc2F)nc1Cc1ccnc(C(F)(F)F)c1', 'foxtail, giant (giant foxtail, Setaria faberii)', 90),
  ('CCCc1nn(-c2ccc(C(F)(F)F)c(F)c2)nc1Oc1ccnc(C(F)(F)F)c1', 'foxtail, giant (giant foxtail, Setaria faberii)', 100),
  ('Cc1nn(-c2ccc(F)cc2)nc1Oc1cc(C(F)(F)F)ccn1', 'foxtail, giant (giant foxtail, Setaria faberii)', 0),
  ('Cc1nn(-c2ccc(F)cc2)nc1Cn1cnc(C(F)(F)F)c1', 'foxtail, giant (giant foxtail, Setaria faberii)', 60);

----------
Reported Plant response rating, Wheat by item:
test system: wheat (Triticum aestivum); assay: Test A pre-/postemergence: wheat; assay type: in vivo; settings: Postemergence, 125 g ai/ha; 0 to 100 scale, 0 is no effect, 100 is complete control
endpoint_label: Plant response rating, Wheat

INSERT INTO assay_data (smiles_entry, endpoint_label, reported_measurement) VALUES
  ('COCc1nn(-c2ccc(F)cc2)nc1Oc1ccnc(C(F)(F)F)c1', 'Plant response rating, Wheat', 10),
  ('CCc1nn(-c2cccc(C(F)(F)F)c2)nc1Cc1cccc(C(F)(F)F)c1', 'Plant response rating, Wheat', 10),
  ('CC(C)c1nn(-c2ccc(F)cc2)nc1Cc1cccc(C(F)(F)F)c1', 'Plant response rating, Wheat', 0),
  ('Cc1nn(-c2ccc(F)c(C(F)(F)F)c2)nc1Oc1ccnc(C(F)(F)F)c1', 'Plant response rating, Wheat', 20);

----------
Quick reference for Plant response rating, Morningglory among some molecules
tested on: morningglory (Ipomoea spp.); assay: Test A pre-/postemergence: morningglory; type: in vivo; conditions: Postemergence, 125 g ai/ha; 0 to 100 scale, 0 is no effect, 100 is complete control
endpoint_label: Plant response rating, Morningglory

INSERT INTO results (molecule, endpoint_label, reported_measurement) VALUES
  ('CC(C)(C)c1nn(-c2ccc(F)cc2)nc1C(=O)c1ccnc(C(F)(F)F)c1 [Compound 175]', 'Plant response rating, Morningglory', 0),
  ('CCCc1nn(-c2ccc(F)cc2)nc1Cc1ccnc(C(F)(F)F)c1 [Compound 153]', 'Plant response rating, Morningglory', 90),
  ('CCCc1nn(-c2ccc(C(F)(F)F)c(F)c2)nc1Oc1ccnc(C(F)(F)F)c1 [Compound 185]', 'Plant response rating, Morningglory', 100),
  ('CC(C)c1nn(-c2ccc(F)cc2)nc1Cc1cccc(C(F)(F)F)c1 [Compound 150]', 'Plant response rating, Morningglory', 0),
  ('CC(C)Cc1nn(-c2ccc(C(F)(F)F)cc2)nc1Oc1ccnc(C(F)F)c1 [Compound 187]', 'Plant response rating, Morningglory', 0),
  ('Fc1ccc(-n2nc(Cc3ccnc(C(F)(F)F)c3)c(OCC(F)(F)F)n2)cc1 [Compound 142]', 'Plant response rating, Morningglory', 100),
  ('CCc1nn(-c2cccc(C(F)(F)F)c2)nc1Cc1cccc(C(F)(F)F)c1 [Compound 143]', 'Plant response rating, Morningglory', 50),
  ('COc1nn(-c2ccc(F)cc2F)nc1Cc1ccnc(C(F)(F)F)c1 [Compound 165]', 'Plant response rating, Morningglory', 60),
  ('CC(C)c1nn(-c2ccc(F)cc2)nc1Cc1ccnc(C(F)(F)F)c1 [Compound 151]', 'Plant response rating, Morningglory', 40),
  ('CCOc1nn(-c2ccc(Br)cc2)nc1Cc1ccnc(C(F)(F)F)c1 [Compound 189]', 'Plant response rating, Morningglory', 60);

----------
system: large crabgrass (Digitaria sanguinalis); test: Test C pre-/postemergence: large crabgrass; assay type: in vivo; details: Postemergence, 250 g ai/ha; scale 0 to 100
endpoint_label: Plant response rating, Crabgrass, Large

INSERT INTO assay_data (molecule, endpoint_label, reported_measurement) VALUES
  ('Cc1nn(-c2ccc(C(F)(F)F)cc2)nc1Cc1ccnc(C(F)(F)F)c1 [Compound 47]', 'Plant response rating, Crabgrass, Large', 50),
  ('Cc1nn(-c2ccnc(C(F)(F)F)c2)nc1Cc1ccnc(C(F)(F)F)c1 [Compound 137]', 'Plant response rating, Crabgrass, Large', 65),
  ('CCCc1nn(-c2ccc(C(F)(F)F)c(F)c2)nc1Oc1ccnc(C(F)(F)F)c1 [Compound 185]', 'Plant response rating, Crabgrass, Large', 80),
  ('Cc1nn(-c2ccc(F)cc2)nc1Oc1ccnc(C(F)(F)F)c1 [Compound 129]', 'Plant response rating, Crabgrass, Large', 85);

----------
system: velvetleaf (Abutilon theophrasti); test: Test A pre-/postemergence: velvetleaf; type: in vivo; details: Preemergence, 125 g ai/ha; 0 to 100 scale where 0 is no effect and 100 is complete control
Plant response rating, Velvetleaf for assorted molecules
endpoint_label: Plant response rating, Velvetleaf

INSERT INTO results (smiles_entry, assay_system, endpoint_label, reported_measurement) VALUES
  ('O=C(c1ccnc(C(F)(F)F)c1)c1nn(-c2ccc(F)cc2)nc1F', 'velvetleaf (Abutilon theophrasti)', 'Plant response rating, Velvetleaf', 0),
  ('CCc1nn(-c2ccc(F)cc2)nc1Cc1cccc(C(F)(F)F)c1', 'velvetleaf (Abutilon theophrasti)', 'Plant response rating, Velvetleaf', 0),
  ('Fc1ccc(-n2nc(Cc3ccnc(C(F)(F)F)c3)c(OCC(F)(F)F)n2)cc1', 'velvetleaf (Abutilon theophrasti)', 'Plant response rating, Velvetleaf', 60),
  ('CCOc1nn(-c2ccc(F)cc2)nc1Cc1ccnc(C(F)F)c1', 'velvetleaf (Abutilon theophrasti)', 'Plant response rating, Velvetleaf', 70),
  ('CSc1ccc(-n2nc(C)c(C(=O)c3cccc(C(F)(F)F)c3)n2)cc1', 'velvetleaf (Abutilon theophrasti)', 'Plant response rating, Velvetleaf', 0);
